# Measured on: human norepinephrine transporter (NET) (Homo sapiens (Human))
# Sequence (P23975 whole entry): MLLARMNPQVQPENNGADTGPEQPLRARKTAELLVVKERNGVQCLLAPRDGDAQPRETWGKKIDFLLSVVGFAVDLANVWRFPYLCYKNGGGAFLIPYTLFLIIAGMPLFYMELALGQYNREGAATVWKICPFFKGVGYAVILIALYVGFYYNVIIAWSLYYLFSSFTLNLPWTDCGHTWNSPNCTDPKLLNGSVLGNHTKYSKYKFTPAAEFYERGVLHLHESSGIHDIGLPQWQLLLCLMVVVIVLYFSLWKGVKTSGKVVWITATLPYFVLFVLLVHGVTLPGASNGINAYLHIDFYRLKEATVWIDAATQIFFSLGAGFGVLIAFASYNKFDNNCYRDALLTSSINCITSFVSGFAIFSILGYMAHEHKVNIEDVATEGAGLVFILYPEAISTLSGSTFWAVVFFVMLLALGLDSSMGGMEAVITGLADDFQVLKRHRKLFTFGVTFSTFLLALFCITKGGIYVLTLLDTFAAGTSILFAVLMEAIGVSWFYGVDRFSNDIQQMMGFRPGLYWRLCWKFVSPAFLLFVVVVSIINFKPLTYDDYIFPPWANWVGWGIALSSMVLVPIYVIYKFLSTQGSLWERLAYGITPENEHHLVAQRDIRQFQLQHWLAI
# Test method notes: Binding assay to human norepinephrine transporter (NET) ([3H]-Nisoxetin)
# Details: Table 2, dual compounds; [3H]-Nisoxetin binding
Quantity: Ki

{"columns": ["Molecule", "Measured on", "Result"],
 "data": [
  ["CNCC(OCc1ccc(N2CCN(C)c3nc(C)ncc3C2=O)cc1)c1ccccc1 (stereo not shown) [Example 355]", "human norepinephrine transporter (NET) (Homo sapiens (Human))", "< 100 nM"],
  ["CNCC[C@H](Oc1ccc(CN2CCN(C)c3cc(OC)ncc3C2=O)cc1)c1cccs1 [Example 385]", "human norepinephrine transporter (NET) (Homo sapiens (Human))", "100 to 500 nM"],
  ["CNCC[C@@H](Oc1ccc(CN2CCN(C)c3ncncc3C2=O)cc1)c1ccccc1 [Example 434]", "human norepinephrine transporter (NET) (Homo sapiens (Human))", "100 to 500 nM"],
  ["CCNc1ncc2c(n1)N(C)CCN(c1cccc(-n3cc(CN(C)CC4CC4)nn3)c1)C2=O [Example 246]", "human norepinephrine transporter (NET) (Homo sapiens (Human))", "100 to 500 nM"],
  ["CNCC[C@@H](OCc1cccc(N2CCN(C)c3nc(SC)ncc3C2=O)c1)c1ccccc1 [Example 164]", "human norepinephrine transporter (NET) (Homo sapiens (Human))", "100 to 500 nM"],
  ["CCc1ncc2c(n1)N(C)CCN(c1cccc(CO[C@H](CCNC)c3ccccc3)c1)C2=O [Example 356]", "human norepinephrine transporter (NET) (Homo sapiens (Human))", "100 to 500 nM"],
  ["CNCCC(OCc1cccc(CN2CCN(C)c3nc(SC)ncc3C2=O)c1)c1ccccc1 (stereo not shown) [Example 367]", "human norepinephrine transporter (NET) (Homo sapiens (Human))", "100 to 500 nM"],
  ["CNCCC(OCc1cccc(N2CCN(C)c3nc(C(F)(F)F)ncc3C2=O)c1)c1ccccc1 (stereo not shown) [Example 322]", "human norepinephrine transporter (NET) (Homo sapiens (Human))", "100 to 500 nM"],
  ["CCNc1ncc2c(n1)N(C)CCN(c1cccc(OC(CNC)c3ccccc3)c1)C2=O (stereo not shown) [Example 154]", "human norepinephrine transporter (NET) (Homo sapiens (Human))", "100 to 500 nM"],
  ["CCNc1ncc2c(n1)N(C)CCN(c1cccc(C(C)(C)CNC)c1)C2=O [Example 173]", "human norepinephrine transporter (NET) (Homo sapiens (Human))", "> 1000 nM"],
  ["CNCC[C@@H](OCc1cccc(N2CCN(C)c3nc(N)ncc3C2=O)c1)c1ccccc1 [Example 195]", "human norepinephrine transporter (NET) (Homo sapiens (Human))", "500 to 1000 nM"],
  ["CNCCC(OCc1cccc(N2CCN(C)c3nc(SC)ncc3C2=O)c1)c1cccs1 (stereo not shown) [Example 208]", "human norepinephrine transporter (NET) (Homo sapiens (Human))", "500 to 1000 nM"],
  ["CNCC[C@H](Oc1ccc(CN2CCN(C)c3cc(C)ncc3C2=O)cc1)c1cccs1 [Example 308]", "human norepinephrine transporter (NET) (Homo sapiens (Human))", "100 to 500 nM"],
  ["CCNc1cc2c(cn1)C(=O)N(Cc1ccc(O[C@@H](CCNC)c3cccs3)cc1)CCN2C [Example 383]", "human norepinephrine transporter (NET) (Homo sapiens (Human))", "100 to 500 nM"],
  ["CNCCC(OCc1ccc(CN2CCN(C)c3nc(C)ncc3C2=O)cc1)c1ccccc1 (stereo not shown) [Example 422]", "human norepinephrine transporter (NET) (Homo sapiens (Human))", "500 to 1000 nM"],
  ["CNCC[C@H](Oc1cccc(N2CCN(C)c3cc(N)ncc3C2=O)c1)c1cccs1 [Example 304]", "human norepinephrine transporter (NET) (Homo sapiens (Human))", "100 to 500 nM"],
  ["CCNc1ncc2c(n1)N(C)CCN(Cc1ccc(OC(CCNC)c3ccccc3)cc1)C2=O (stereo not shown) [Example 408]", "human norepinephrine transporter (NET) (Homo sapiens (Human))", "< 100 nM"],
  ["CCNc1ncc2c(n1)N(C)CCN(Cc1cccc(COC(CCNC)c3ccccc3)c1)C2=O (stereo not shown) [Example 406]", "human norepinephrine transporter (NET) (Homo sapiens (Human))", "100 to 500 nM"],
  ["CCNc1ncc2c(n1)N(C)CCN(c1cccc(OC(CCNC)c3cccnc3)c1)C2=O (stereo not shown) [Example 194]", "human norepinephrine transporter (NET) (Homo sapiens (Human))", "> 1000 nM"],
  ["CCNc1ncc2c(n1)N(C)CCN(c1cccc(CO[C@@H](CCN(C)C)c3ccccc3)c1)C2=O [Example 237]", "human norepinephrine transporter (NET) (Homo sapiens (Human))", "> 1000 nM"],
  ["CNCC[C@H](Oc1ccc(CN2CCN(C)c3cc(N)ncc3C2=O)cc1)c1cccs1 [Example 305]", "human norepinephrine transporter (NET) (Homo sapiens (Human))", "100 to 500 nM"],
  ["CNCC[C@H](OCc1cccc(N2CCN(C)c3nc(SC)ncc3C2=O)c1)c1cccs1 [Example 210]", "human norepinephrine transporter (NET) (Homo sapiens (Human))", "100 to 500 nM"],
  ["CNCCC(OCc1ccc(N2CCN(C)c3nc(SC)ncc3C2=O)cc1)c1cccs1 (stereo not shown) [Example 328]", "human norepinephrine transporter (NET) (Homo sapiens (Human))", "< 100 nM"],
  ["CCNc1cc2c(cn1)C(=O)N(c1cccc(OC(CCNC)c3ccccc3)c1)CCN2C (stereo not shown) [Example 198]", "human norepinephrine transporter (NET) (Homo sapiens (Human))", "100 to 500 nM"],
  ["CNCCC(OCc1ccc(N2CCN(C)c3nc(C)ncc3C2=O)cc1)c1ccccc1 (stereo not shown) [Example 353]", "human norepinephrine transporter (NET) (Homo sapiens (Human))", "< 100 nM"],
  ["CCNc1ncc2c(n1)N(C)CCN(c1cccc(OC(CN(C)C)c3ccccc3)c1)C2=O (stereo not shown) [Example 239]", "human norepinephrine transporter (NET) (Homo sapiens (Human))", "500 to 1000 nM"],
  ["CCNc1ncc2c(n1)N(C)CCN(Cc1ccc(COC(CCNC)c3ccccc3)cc1)C2=O (stereo not shown) [Example 405]", "human norepinephrine transporter (NET) (Homo sapiens (Human))", "100 to 500 nM"],
  ["CNCC[C@@H](OCc1cccc(N2CCN(C)c3ncncc3C2=O)c1)c1ccccc1 [Example 207]", "human norepinephrine transporter (NET) (Homo sapiens (Human))", "500 to 1000 nM"]
]}

###

# Measured on: human α2δ-1 subunit of Cav2.2 calcium channel (Homo sapiens (Human))
# Sequence (P54289 25-1103): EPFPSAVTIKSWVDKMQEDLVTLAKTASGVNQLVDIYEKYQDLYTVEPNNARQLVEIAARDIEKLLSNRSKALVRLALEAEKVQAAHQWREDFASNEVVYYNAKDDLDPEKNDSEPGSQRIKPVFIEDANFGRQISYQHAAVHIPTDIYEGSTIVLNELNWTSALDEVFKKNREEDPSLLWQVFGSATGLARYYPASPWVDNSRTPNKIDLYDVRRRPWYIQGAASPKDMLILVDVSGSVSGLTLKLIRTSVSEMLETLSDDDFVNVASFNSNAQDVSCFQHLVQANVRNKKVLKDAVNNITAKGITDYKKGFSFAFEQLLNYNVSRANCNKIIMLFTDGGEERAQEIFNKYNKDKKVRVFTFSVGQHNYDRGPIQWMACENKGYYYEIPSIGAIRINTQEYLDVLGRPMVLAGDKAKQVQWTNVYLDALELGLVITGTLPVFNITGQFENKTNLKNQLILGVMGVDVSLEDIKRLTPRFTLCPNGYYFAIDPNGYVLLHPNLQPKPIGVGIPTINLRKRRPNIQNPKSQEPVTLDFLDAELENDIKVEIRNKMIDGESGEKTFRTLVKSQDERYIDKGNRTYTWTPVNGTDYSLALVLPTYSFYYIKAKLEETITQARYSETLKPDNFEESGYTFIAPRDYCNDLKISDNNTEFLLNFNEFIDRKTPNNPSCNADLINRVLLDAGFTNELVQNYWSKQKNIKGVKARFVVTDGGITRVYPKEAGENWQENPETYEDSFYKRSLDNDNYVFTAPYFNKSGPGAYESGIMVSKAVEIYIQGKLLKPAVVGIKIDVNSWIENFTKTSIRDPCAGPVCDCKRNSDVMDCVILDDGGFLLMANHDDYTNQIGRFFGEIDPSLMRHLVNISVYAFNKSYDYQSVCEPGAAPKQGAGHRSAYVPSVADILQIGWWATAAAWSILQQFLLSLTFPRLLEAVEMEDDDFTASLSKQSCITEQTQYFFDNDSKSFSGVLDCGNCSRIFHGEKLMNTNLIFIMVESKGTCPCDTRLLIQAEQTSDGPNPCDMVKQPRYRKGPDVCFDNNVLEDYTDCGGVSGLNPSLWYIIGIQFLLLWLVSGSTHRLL
# Test method notes: Binding assay to human α2δ-1 subunit of Cav2.2 calcium channel ([3H]-Gabapentin)
# Details: binding to α2δ-1, [3H]-Gabapentin; read-out: Ki (nM) α2δ-1
Quantity: Ki

{"columns": ["Molecule", "Result"],
 "data": [
  ["CSc1ncc2c(n1)N(C)CCN(c1cccc(OC(CCN(C)C(=O)OC(C)(C)C)c3ccccc3)c1)C2=O (centres unmarked) [Example 1]", "> 3000 nM"],
  ["CNCC[C@@H](OCc1cccc(N2CCN(C)c3nc(N)ncc3C2=O)c1)c1ccccc1 [Example 195]", "100 to 500 nM"],
  ["CNCCC(OCc1cccc(N2CCN(C)c3nc(SC)ncc3C2=O)c1)c1cccs1 (centres unmarked) [Example 208]", "500 to 3000 nM"],
  ["CCNc1ncc2c(n1)N(C)CCN(c1cccc(OC(CCNCCF)c3cccs3)c1)C2=O (centres unmarked) [Example 220]", "500 to 3000 nM"],
  ["CCNc1ncc2c(n1)N(C)CCN(c1cccc(OCCCN(C)C(=O)OC(C)(C)C)c1)C2=O [Example 88]", "> 3000 nM"],
  ["CSc1ncc2c(n1)N(C)CCN(c1cccc(OC(C)CN(C)C(=O)OC(C)(C)C)c1)C2=O (centres unmarked) [Example 6]", "> 3000 nM"],
  ["CCNc1ncc2c(n1)N(C)CCN(c1cccc(-n3cc(CN(C)CCc4ccccc4)nn3)c1)C2=O [Example 244]", "500 to 3000 nM"],
  ["CSc1ncc2c(n1)N(C)CCN(c1cccc(COC(CN(C)C(=O)OCC[Si](C)(C)C)c3ccccc3)c1)C2=O (centres unmarked) [Example 19]", "> 3000 nM"],
  ["CNCC[C@H](Oc1ccc(CN2CCN(C)c3nc(OC)ncc3C2=O)c(F)c1)c1cccs1 [Example 401]", "< 100 nM"],
  ["CCOC(OCC)c1cn(-c2cccc(N3CCN(C)c4nc(SC)ncc4C3=O)c2)nn1 [Example 42]", "> 3000 nM"],
  ["CCNc1ncc2c(n1)N(C)CCN(c1cccc(C(=O)N3CCC(c4ccccc4)(N(C)C)CC3)c1)C2=O [Example 314]", "> 3000 nM"]
]}

Numbers sourced from patent US10590140B2.
